- Tested target: T1, Human IL-13 (human, UniProt P35225 35-146)
- T1 construct: also called human interleukin 13 (Peprotech); the antigen
- T1 sequence (P35225 35-146 limits assumed): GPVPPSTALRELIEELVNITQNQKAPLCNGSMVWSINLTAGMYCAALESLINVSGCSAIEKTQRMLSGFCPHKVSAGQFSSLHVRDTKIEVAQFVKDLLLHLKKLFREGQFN
- Experimental protocol: IC50 of the parent scFv divided by IC50 of the clone, biochemical receptor-ligand inhibition assay, purified scFv
Provide the recorded Fld improvement for the entries that follow.
Give bare numbers, in fold.

{"Binder": "13NG0072 (scFv, V domains shown, purified scFv from the mini-recombination library; member of group m20; also called ZZ0SEA-H11; copies: 1 + 1) VH: QVQLVQSGAEVKKPGASVKVSCKASGYTFTNYGLSWVRQAPGQGLEWMGWINYDGGNTQYGQEFQGRVTMTTDTSTSTAYMELRSLRSDDTAVYYCARDSSSSWARWFFDLWGRGTLVTVSS VL: SYVLTQPPSVSVAPGKTARIPCGGNMVGARLVHWYQQKPGQAPVLIVYDDMDRPSGIPERFSGSNSGNTATLTISRVETGDEADYYCQVWDTGSRPVVFGGGTKLTVL", "Measured endpoint": "Fld improvement", "Units": "fold", "Measurement": 3.16}
{"Binder": "13NG0071 (scFv, V domains shown, purified scFv from the mini-recombination library; member of group m20; also called ZZ0SEE-A09; copies: 1 + 1) VH: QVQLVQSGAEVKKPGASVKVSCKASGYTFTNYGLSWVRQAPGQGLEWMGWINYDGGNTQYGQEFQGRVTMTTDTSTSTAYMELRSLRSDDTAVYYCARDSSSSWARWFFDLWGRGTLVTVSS VL: SYVLTQPPSVSVAPGKTARIPCGGNMVGARLVHWYQQKPGQAPVLIVFDDEDRPSGIPERFSGSNSGNTATLTISRVEAGDEADYYCQVWDTGSLPVVFGGGTKLTVL", "Measured endpoint": "Fld improvement", "Units": "fold", "Measurement": 3.8}

Moving on to the next binder.
Reported Fld improvement, binder 13NG0076 (scFv, V domains shown, purified scFv from the mini-recombination library; member of group m20; also called ZZ0SEA-F10; copies: 1 + 1) VH: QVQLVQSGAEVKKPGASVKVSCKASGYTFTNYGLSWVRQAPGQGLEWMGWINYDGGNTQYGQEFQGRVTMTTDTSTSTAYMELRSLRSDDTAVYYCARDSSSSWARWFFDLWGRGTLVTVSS VL: SYVLTQPPSVSVAPGKTARIPCGGNMVGARLVHWYQQKPGQAPVLVIMDDIDRPSGIPERFSGSNSGNTATLTISRVEAGDEADYYCQVWDTGSRPVVFGGGTKLTVL : ____ 5.09
